Catalogue of Thioflavin T fluorometry % Inhibition readings, one per entry.
- Target entity: Aβ 1-42 fibrils (Homo sapiens, UniProt P05067)
- Construct: pre-fibrillized human Aβ 1-42 (rPeptide); purchased rPeptide
- Sequence (P05067 672-713 limits assumed): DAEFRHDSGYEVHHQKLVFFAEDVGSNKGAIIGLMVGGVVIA
- Assay procedure: Thioflavin T fluorometry, disruption of pre-fibrillized Aβ 1-42
- Type: biochemical
- Settings: compound:peptide molar ratio 10:1; 2-day incubation
Observed property: Thioflavin T fluorometry % Inhibition (%)

{"Molecule": "Cn1c(=O)c2c(nc(-c3ccc(O)c(O)c3)n2C)n(C)c1=O", "Unit tag": "%", "Data value": 63}
{"Molecule": "Cn1c(=O)c2c(ncn2Cc2ccc(O)c(O)c2)n(Cc2ccc(O)c(O)c2)c1=O", "Unit tag": "%", "Data value": 91}
{"Molecule": "Cn1c(=O)c2c(ncn2C)n(C)c1=O [Caffeine, reference compound]", "Unit tag": "%", "Data value": 8}
{"Molecule": "Cn1c(=O)n(Cc2ccc(O)c(O)c2)c(=O)c2c1ncn2Cc1ccc(O)c(O)c1", "Unit tag": "%", "Data value": 94}
{"Molecule": "Cn1cnc2c1c(=O)n(Cc1ccc(O)c(O)c1)c(=O)n2Cc1ccc(O)c(O)c1", "Unit tag": "%", "Data value": 94}

----------
Catalogue of ThioT Assay % Inhibition readings, one per entry.
- Target entity: wild-type α-synuclein (Homo sapiens, UniProt P37840)
- Assay procedure: Thioflavin T fluorometry, inhibition of formation of α-synuclein β-sheet from fresh α-synuclein
- Format: biochemical
- Settings: compound:peptide molar ratio 0.01:1

{"Molecule": "Cn1c(=O)n(Cc2ccc(O)c(O)c2)c(=O)c2c1ncn2Cc1ccc(O)c(O)c1 [PD-151]", "ThioT Assay % Inhibition (%)": 0}
{"Molecule": "Cn1c(=O)c2c(nc(-c3ccc(O)c(O)c3)n2C)n(C)c1=O [PD-153]", "ThioT Assay % Inhibition (%)": 13}
{"Molecule": "Cn1c(=O)c2c(ncn2Cc2ccc(O)c(O)c2)n(Cc2ccc(O)c(O)c2)c1=O [PD-152]", "ThioT Assay % Inhibition (%)": 0}
{"Molecule": "Cn1cnc2c1c(=O)n(Cc1ccc(O)c(O)c1)c(=O)n2Cc1ccc(O)c(O)c1 [PD-150]", "ThioT Assay % Inhibition (%)": 0}
{"Molecule": "Cn1c(=O)c2c(ncn2C)n(C)c1=O [Caffeine, reference compound]", "ThioT Assay % Inhibition (%)": 0}

----------
Catalogue of Congo Red Binding % Inhibition readings, one per entry.
- Target entity: Aβ 1-42 fibrils (Homo sapiens, UniProt P05067)
- Construct: pre-fibrillized human Aβ 1-42 (rPeptide); purchased rPeptide
- Assay procedure: Congo red binding assay, Aβ 1-42 fibrils
- Assay type: biochemical
- Settings: compound:peptide molar ratio 10:1; 2-day incubation

{"Compound": "Cn1cnc2c1c(=O)n(Cc1ccc(O)c(O)c1)c(=O)n2Cc1ccc(O)c(O)c1", "Unit tag": "%", "Congo Red Binding % Inhibition": 60}
{"Compound": "Cn1c(=O)c2c(ncn2Cc2ccc(O)c(O)c2)n(Cc2ccc(O)c(O)c2)c1=O", "Unit tag": "%", "Congo Red Binding % Inhibition": 59}
{"Compound": "Cn1c(=O)c2c(ncn2C)n(C)c1=O [Caffeine, reference compound]", "Unit tag": "%", "Congo Red Binding % Inhibition": 1}
{"Compound": "Cn1c(=O)n(Cc2ccc(O)c(O)c2)c(=O)c2c1ncn2Cc1ccc(O)c(O)c1", "Unit tag": "%", "Congo Red Binding % Inhibition": 63}
{"Compound": "Cn1c(=O)c2c(nc(-c3ccc(O)c(O)c3)n2C)n(C)c1=O", "Unit tag": "%", "Congo Red Binding % Inhibition": 20}

----------
- Target entity: α-synuclein fibrils (Homo sapiens, UniProt P37840)
- Construct: purchased rPeptide, Bogart, Calif
- Assay procedure: Thioflavin T fluorometry, disruption of pre-formed α-synuclein fibrils
- Format: biochemical
- Settings: compound:peptide molar ratio 0.01:1; 2-day incubation
Catalogue of Thioflavin T fluorometry-% Inhibition readings, one per entry.

{"Line notation": "Cn1c(=O)n(Cc2ccc(O)c(O)c2)c(=O)c2c1ncn2Cc1ccc(O)c(O)c1", "Thioflavin T fluorometry-% Inhibition (%)": 4}
{"Line notation": "Cn1c(=O)c2c(nc(-c3ccc(O)c(O)c3)n2C)n(C)c1=O", "Thioflavin T fluorometry-% Inhibition (%)": 7}
{"Line notation": "Cn1c(=O)c2c(ncn2Cc2ccc(O)c(O)c2)n(Cc2ccc(O)c(O)c2)c1=O", "Thioflavin T fluorometry-% Inhibition (%)": 0}
{"Line notation": "Cn1cnc2c1c(=O)n(Cc1ccc(O)c(O)c1)c(=O)n2Cc1ccc(O)c(O)c1", "Thioflavin T fluorometry-% Inhibition (%)": 0}

----------
- Target entity: α-synuclein fibrils (Homo sapiens, UniProt P37840)
- Construct: purchased rPeptide, Bogart, Calif
- Assay procedure: Congo red binding assay, pre-formed α-synuclein fibrils
- Format: biochemical
- Settings: compound:peptide molar ratio 10:1; 2-day incubation
Catalogue of Congo Red Binding- % Inhibition readings, one per entry.
Observed property: Congo Red Binding- % Inhibition (%)

{"Compound": "Cn1c(=O)c2c(ncn2C)n(C)c1=O [Caffeine, reference compound]", "Unit tag": "%", "Data value": 0}
{"Compound": "Cn1c(=O)n(Cc2ccc(O)c(O)c2)c(=O)c2c1ncn2Cc1ccc(O)c(O)c1 [PD-151]", "Unit tag": "%", "Data value": 22}
{"Compound": "Cn1cnc2c1c(=O)n(Cc1ccc(O)c(O)c1)c(=O)n2Cc1ccc(O)c(O)c1 [PD-150]", "Unit tag": "%", "Data value": 35}
{"Compound": "Cn1c(=O)c2c(nc(-c3ccc(O)c(O)c3)n2C)n(C)c1=O [PD-153]", "Unit tag": "%", "Data value": 18}
{"Compound": "Cn1c(=O)c2c(ncn2Cc2ccc(O)c(O)c2)n(Cc2ccc(O)c(O)c2)c1=O [PD-152]", "Unit tag": "%", "Data value": 22}

----------
- Target entity: α-synuclein fibrils (Homo sapiens)
- Construct: purchased rPeptide, Bogart, Calif
- Assay procedure: Thioflavin T fluorometry, disruption of pre-formed α-synuclein fibrils
- Assay type: biochemical
- Settings: compound:peptide molar ratio 1:1; 2-day incubation
Catalogue of Thioflavin T fluorometry-% Inhibition readings, one per entry.

{"Compound": "Cn1c(=O)c2c(nc(-c3ccc(O)c(O)c3)n2C)n(C)c1=O [PD-153]", "Thioflavin T fluorometry-% Inhibition / %": 18}
{"Compound": "Cn1c(=O)n(Cc2ccc(O)c(O)c2)c(=O)c2c1ncn2Cc1ccc(O)c(O)c1 [PD-151]", "Thioflavin T fluorometry-% Inhibition / %": 56}
{"Compound": "Cn1c(=O)c2c(ncn2Cc2ccc(O)c(O)c2)n(Cc2ccc(O)c(O)c2)c1=O [PD-152]", "Thioflavin T fluorometry-% Inhibition / %": 52}
{"Compound": "Cn1cnc2c1c(=O)n(Cc1ccc(O)c(O)c1)c(=O)n2Cc1ccc(O)c(O)c1 [PD-150]", "Thioflavin T fluorometry-% Inhibition / %": 48}

----------
Catalogue of Thioflavin T fluorometry % Inhibition readings, one per entry.
- Target entity: Aβ 1-42 fibrils (Homo sapiens)
- Construct: pre-fibrillized human Aβ 1-42 (rPeptide); purchased rPeptide
- Assay procedure: Thioflavin T fluorometry, disruption of pre-fibrillized Aβ 1-42
- Format: biochemical
- Settings: compound:peptide molar ratio 0.1:1; 2-day incubation

{"Molecule": "Cn1c(=O)c2c(ncn2Cc2ccc(O)c(O)c2)n(Cc2ccc(O)c(O)c2)c1=O [PD-152]", "Target entity": "Aβ 1-42 fibrils (Homo sapiens)", "Thioflavin T fluorometry % Inhibition": "13%"}
{"Molecule": "Cn1c(=O)n(Cc2ccc(O)c(O)c2)c(=O)c2c1ncn2Cc1ccc(O)c(O)c1 [PD-151]", "Target entity": "Aβ 1-42 fibrils (Homo sapiens)", "Thioflavin T fluorometry % Inhibition": "20%"}
{"Molecule": "Cn1c(=O)c2c(nc(-c3ccc(O)c(O)c3)n2C)n(C)c1=O [PD-153]", "Target entity": "Aβ 1-42 fibrils (Homo sapiens)", "Thioflavin T fluorometry % Inhibition": "0%"}
{"Molecule": "Cn1cnc2c1c(=O)n(Cc1ccc(O)c(O)c1)c(=O)n2Cc1ccc(O)c(O)c1 [PD-150]", "Target entity": "Aβ 1-42 fibrils (Homo sapiens)", "Thioflavin T fluorometry % Inhibition": "35%"}

----------
Catalogue of Thioflavin T fluorometry % Inhibition readings, one per entry.
- Target entity: Aβ 1-42 fibrils (Homo sapiens)
- Construct: pre-fibrillized human Aβ 1-42 (rPeptide); purchased rPeptide
- Assay procedure: Thioflavin T fluorometry, disruption of pre-fibrillized Aβ 1-42
- Assay type: biochemical
- Settings: compound:peptide molar ratio 0.05:1; 2-day incubation
Observed property: Thioflavin T fluorometry % Inhibition (%)

{"Line notation": "Cn1cnc2c1c(=O)n(Cc1ccc(O)c(O)c1)c(=O)n2Cc1ccc(O)c(O)c1", "Target entity": "Aβ 1-42 fibrils (Homo sapiens)", "Data value": 41}
{"Line notation": "Cn1c(=O)n(Cc2ccc(O)c(O)c2)c(=O)c2c1ncn2Cc1ccc(O)c(O)c1", "Target entity": "Aβ 1-42 fibrils (Homo sapiens)", "Data value": 18}
{"Line notation": "Cn1c(=O)c2c(nc(-c3ccc(O)c(O)c3)n2C)n(C)c1=O", "Target entity": "Aβ 1-42 fibrils (Homo sapiens)", "Data value": 5}
{"Line notation": "Cn1c(=O)c2c(ncn2Cc2ccc(O)c(O)c2)n(Cc2ccc(O)c(O)c2)c1=O", "Target entity": "Aβ 1-42 fibrils (Homo sapiens)", "Data value": 12}
